Field: ETAG (OD). Provide a value for each of the binders that follow.
# Assayed Target: T1, antibody raised against ETAG
# T1 construct: Coated at 500 ng/well; also called E-tag antibody
# Assay Summary: phage ELISA
Answers are plain numbers, in OD.

Answered cases to consult:
>>> value_observed("GWSDFVATGSWSGQVSAALNAAAGAPVPYPDPLEPRP [DGI-2-20R-4-F120]")
16.5
>>> value_observed("SLFERSARSRYHGSPDCNGSAAAGAPVPYPDPLEPRP [DGI-2-20F-PP-A3]")
12.9
>>> value_observed("EGQRVVFLFGALVAGLCWRDRAAAGAPVPYPDPLEPRP [DGI-2-20F-PP-F3]")
18.7

Batch request: ETAG (OD) per item, same order as input.
1. GASRVVDVGWRFWGKLWQRSAAAGAPVPYPDPLEPRP [DGI-2-20F-PP-G5]
2. VGHLLSRCAHHSPGMGASPYGAAAGAPVPYPDPLEPRP [DGI-2-20F-PP-B11]

1. 27.7
2. 40.8

What value of measured ETAG (OD) is listed for GITGLFCLCLRSSQSIAAAGAPVPYPDPLEPRP [DGI-2-20F-P0P-D6] ?
5.7
